# Experimental protocol: qHTS for differential inhibitors of proliferation of Plasmodium falciparum line 3D7 (AID 1876)
# Condition description: P. falciparum 3D7 proliferation inhibition; series mostly up to 28.7 µM
Records with an inconclusive call do not appear. Calls of active or inactive are those of the source. Calls follow the shape of the dose curve; as a rule, active = well fitted curve in the direction sought with a large enough effect; inconclusive = small, poorly fitted or top-dose-only effect, or another doubt; inactive = no such curve, though single readings can be large or run the other way.
Tick one outcome: active, inactive

For O=C(O)/C=C/C(O)c1ccc(Cl)cc1 (stereo not given) , what call appears in the results of this test?
inactive

In this assay, the call recorded for `COC1=C(OC)C(=O)c2ccccc2C1=O` was what?
active

Record request — test call for CCCCCCCCCCCCCCCC(=O)NCC(COP(=O)([O-])OCC[N+](C)(C)C)OCC (stereo not given)
inactive

So what was the verdict on `CN(C)C(N)=NCCC[C@H](N)C(=O)O` in this test?
inactive

What did the test return for `O=C(O)c1cc(=O)c2c(Cl)cc(Cl)cc2[nH]1` ?
inactive

For `NC(=O)C(=O)O` , what call appears in the results of this test?
inactive

// param item: `CC(C)Cc1ccc([C@H](C)C(=O)O)cc1` ; yields the recorded call
inactive

Hello, I am checking results. What call was entered for `C=C/C(C)=C/[C@@]1(C)SC(=O)C(C)=C1O` ?
inactive

Returns: the outcome recorded for `CN1CCC[C@H]1c1cccnc1` in this assay.
inactive

What outcome does the record of this test show for `CC1(C)CCC=[N+]1[O-]` ?
inactive

Please share the test call associated with `O=C(O)CC[C@@H](C(=O)O)N1C(=O)c2ccccc2C1=O` .
inactive

Recorded test outcome, item NC(CCCP(=O)(O)O)C(=O)O (stereo not given)
inactive

Per the records of this test, what outcome belongs to `O=C(O)c1cc([N+](=O)[O-])ccc1NCCCc1ccccc1` ?
inactive

Identify the outcome logged in this assay for the molecule shown: `CN1CCc2ccccc2Cc2[nH]c3ccccc3c2CC1`
active

Check the results log: what was the call for `O=C(O)CCCC[C@@H]1CCSS1` ?
inactive

GET /call?item= `O=C(Nc1cccc(C(=O)Nc2ccc(S(=O)(=O)O)c3cc(S(=O)(=O)O)cc(S(=O)(=O)O)c23)c1)Nc1cccc(C(=O)Nc2ccc(S(=O)(=O)O)c3cc(S(=O)(=O)O)cc(S(=O)(=O)O)c23)c1` returns the recorded outcome of this test.
inactive

// outcome(item) with item = CN1CCc2cccc3c2C1Cc1ccc(O)c(O)c1-3 (stereo not given)
active

Which outcome was assigned to `O=C1C(SCCO)=C(SCCO)C(=O)c2ccccc21` in this test?
active

In this assay, the call recorded for `NCCNC(=O)c1ncsc1-c1cccc(F)c1` was what?
inactive

Recorded test outcome, item `O=c1[nH]c2cc(Cl)c(Cl)cc2[nH]c1=O`
active

Hi, do you know how `COc1ccccc1N1CCN(CCCCNS(=O)(=O)c2cccc3c(N(C)C)cccc23)CC1` came out in this test?
active

Assay result, entry `Cn1c(=O)c2[nH]c(-c3ccccc3)nc2n(C)c1=O` — outcome?
inactive

What did this assay record as the result for Cc1ccccc1CNc1ncnc2c1ncn2C1OC(CO)C(O)C1O (stereo not given) ?
inactive

Hi team, can someone confirm the assay call for `CN(C)c1nc2c(Br)c(Br)c(Br)c(Br)c2[nH]1` ?
inactive

Record request — test call for `c1ccc(-c2ccccn2)nc1`
inactive

###

# Subject of test: Phospholipid hydroperoxide glutathione peroxidase GPX4 (Homo sapiens) (UniProt P36969)
# Sequence (P36969 whole entry, looked up): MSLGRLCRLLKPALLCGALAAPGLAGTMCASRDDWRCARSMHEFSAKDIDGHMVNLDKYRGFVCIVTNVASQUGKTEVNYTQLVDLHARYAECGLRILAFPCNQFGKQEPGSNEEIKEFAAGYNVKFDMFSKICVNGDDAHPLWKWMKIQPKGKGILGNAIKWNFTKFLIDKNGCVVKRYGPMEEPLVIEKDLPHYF
# Experimental protocol: Primary qHTS Assay for Inhibitors of Recombinant Selenoprotein Glutathione Peroxidase 4 (GPX4) (AID 1845192); also: nearly all actives have a fitted effect of over 65% in size
# Condition description: recombinant GPX4, GR-coupled NADPH fluorescence, 15 min; series mostly up to 50 µM
Inconclusive results are not listed. Active and inactive are the calls of the source. Calls come from the whole dose curve; as a rule, active = well fitted inhibition curve with a large enough effect; inconclusive = small, poorly fitted or top-dose-only effect; inactive = flat fitted curve, though single readings scatter.
Outcomes you can answer with include only these: active, inactive

State the result this test recorded for `CCCOC(=O)c1ccc(O)cc1` .
inactive

Tell me the recorded outcome of this test for `O=C1NC(=O)c2c1c(-c1ccccc1)cc1[nH]c3ccc(O)cc3c21` .
inactive

Test call, this compound: CC(=O)SCC(CC(=O)c1ccc(C)cc1)C(=O)O (stereo not drawn)
inactive

Recorded call for `CCCCCCOc1ccccc1C(N)=O` ?
inactive

Test call, this compound: `NO`
inactive

How was `CCOC(=O)c1ccccc1O` classified in this test?
inactive

Can you look up the reported call for `Brc1cc2c(cc1[C@H]1Nc3ccccc3[C@H]3C=CC[C@H]31)OCO2` for me?
inactive

Which outcome was assigned to `CCOc1ccc2nc(S(N)(=O)=O)sc2c1` in this test?
inactive

Could you check what this test reported for `COc1cccc(C(=O)NCCN2CCN(c3ccc(Cl)cc3)CC2)c1` ?
inactive

Any idea what this test logged for `Nc1ccn([C@@H]2O[C@H](CO)[C@@H](O)[C@@H]2O)c(=O)n1` ?
inactive

Which result was noted for this compound in the test: `CC(C)(NS(=O)(=O)c1ccc(Oc2ccc(F)cc2)cc1)C(=O)NO`
inactive

Dear colleague, could you share the recorded outcome for `CC1(C)[C@@H](O[C@H]2O[C@H](C(=O)O)[C@@H](O)[C@H](O)[C@H]2O[C@@H]2O[C@H](C(=O)O)[C@@H](O)[C@H](O)[C@H]2O)CC[C@]2(C)[C@H]3C(=O)C=C4[C@@H]5C[C@@](C)(C(=O)O)CC[C@]5(C)CC[C@@]4(C)[C@]3(C)CC[C@@H]12` when you have a moment?
inactive

Call for entry `Oc1ccccc1O` :
inactive

Status in this test for `C=CCc1cccc(/C=N/NC(=O)CN2CCN(Cc3ccccc3)CC2)c1O` ?
inactive

Record request — test call for `CC(C)NC[C@@H](O)c1ccc(O)c(O)c1`
inactive

# fetch the recorded call for `N=c1ccn2c(n1)O[C@H]1[C@H](O)[C@@H](CO)O[C@H]12` here
inactive

Assay result, entry C[N+]1(C)C2CC(OC(=O)[C@H](CO)c3ccccc3)CC1C1OC12 (stereo partly drawn) — outcome?
inactive

Returns: the outcome recorded for `O=C(CCc1ccncc1)NNC(=O)N1Cc2ccccc2Oc2ccc(Cl)cc21` in this assay.
inactive

Each compound tested received a call. Report the one for `CN=c1nc(-c2ccccc2)n(-c2ccccc2)s1` .
inactive

Each compound tested received a call. Report the one for `O=[N+]([O-])c1ccc(CSc2ncnc3c2ncn3[C@@H]2O[C@H](CO)[C@@H](O)[C@H]2O)cc1` .
inactive

# outcome recorded in this test, key = `CC(=O)/C=C1\C(=O)N(C)c2ccccc21`
inactive

Record request — test call for `O=C(Nc1ccc2c(c1)CCN(Cc1ncn[nH]1)C2)c1ccccc1-c1ccc(C(F)(F)F)cc1`
inactive

Hi team, can someone confirm the assay call for `CCCCCCCCCCCCCCCC(=O)OC(C)C` ?
inactive

Hey, what did the test say about `CCCN(CC1CC1)c1nc(C)nc(Nc2c(Cl)cc(Cl)cc2Cl)c1Cl` ?
inactive

Please share the test call associated with `CCN(CC)c1ncnc2c1ncn2[C@@H]1O[C@H](COP(=O)(O)OP(=O)(O)C(Br)(Br)P(=O)(O)O)[C@@H](O)[C@H]1O` .
inactive

Please share the test call associated with `O=C(c1cc(O)c(O)c([N+](=O)[O-])c1)c1ccccc1F` .
inactive

Hey, what did the test say about `c1ccc(-c2ccccn2)nc1` ?
inactive

Record request — test call for `Oc1cc2c(cc1O)CN(C(=S)NCCc1ccc(Cl)cc1)CCC2`
inactive

Please state the recorded outcome for this compound: `O=[N+]([O-])c1ccc2c(c1)S(=O)(=O)C=C2`
inactive

Outcome? CN(C)[C@@H]1C(=O)C(C(=O)NCN2CCCC2)=C(O)[C@@]2(O)C(=O)C3=C(O)c4c(O)cccc4[C@@](C)(O)C3C[C@@H]12 (stereo partly drawn)
inactive

Which result was noted for this compound in the test: `CC(=O)c1ccc(OCC(=O)N2CCCCC2)cc1`
inactive

Field: outcome | Entry: O=C(O)CC1CC(c2ccccc2)=NO1 (stereo not drawn)
inactive

# fetch the recorded call for `Nc1nc2ccc(Cl)cc2n2c(-c3ccccc3)nnc12` here
inactive

Could you kindly confirm the outcome this assay logged for CC1CN(S(=O)(=O)c2cccc3cnccc23)CCN1 (stereo not drawn) ?
inactive

Give the logged outcome of this assay for the following compound: `Nc1nc(SCc2ccc([N+](=O)[O-])cc2)c2ncn([C@@H]3O[C@H](CO)[C@@H](O)[C@H]3O)c2n1`
inactive

Please share the test call associated with `Cc1c(Nc2ncccc2C(=O)O)cccc1C(F)(F)F` .
inactive

Please indicate how the test categorized `CCN(CC)CCCCNc1ncc2cc(-c3c(Cl)cccc3Cl)c(NC(=O)NC(C)(C)C)nc2n1` .
active

Kindly provide the recorded test outcome for the following compound: `CC(C)(C)c1ccc(S(=O)(=O)/C=C/C#N)cc1`
inactive

Which result was noted for this compound in the test: CCNC(=O)[C@H]1O[C@@H](n2cnc3c(N)nc(NCCc4ccc(CCC(=O)O)cc4)nc32)[C@H](O)C1O (stereo partly drawn)
inactive

Please let me know the test result on file for OCC1O[C@H](O)C(Cl)C(O)C1O (stereo partly drawn) .
inactive

Hello, I am checking results. What call was entered for `N.N.O=C(O)C1(C(=O)O)CCC1.[Pt]` ?
active

For this compound, state the assay outcome: C#CC1(O)CC[C@H]2[C@@H]3CCC4=CCCC[C@@H]4[C@H]3CC[C@@]21C (stereo partly drawn)
inactive

Can you look up the reported call for `Cc1onc(-c2c(F)cccc2Cl)c1C(=O)N[C@@H]1C(=O)N2[C@@H]1SC(C)(C)[C@@H]2C(=O)O` for me?
inactive
